The values you see were collected from the FLAb antibody collection (doi:10.7554/elife.23156).

B1: scFv; the commonest letter at each place (parent)
chain 1: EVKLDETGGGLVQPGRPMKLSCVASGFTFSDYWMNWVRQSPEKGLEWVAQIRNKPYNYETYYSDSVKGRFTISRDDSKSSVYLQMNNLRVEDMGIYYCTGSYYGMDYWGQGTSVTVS
chain 2: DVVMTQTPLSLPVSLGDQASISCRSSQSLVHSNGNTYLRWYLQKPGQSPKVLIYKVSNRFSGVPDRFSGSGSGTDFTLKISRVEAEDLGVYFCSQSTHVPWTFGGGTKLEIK

Variants of: B1
Assay: yeast surface expression (ratio to wild type); higher = more expressed
Conditions: format: scFv 4-4-20, heavy + light
Quick reference for yeast surface expression among some variants
API note: the answer field is a bare number with no unit suffix.

Below are worked cases with known answers.
variant	value kind	recorded result
chain 1 Y102H G104N M105S	yeast surface expression	1.54
chain 1 S30T W33V	yeast surface expression	0.899
chain 1 Y103N D106N W108T	yeast surface expression	0.736

yeast surface expression lookup needed for chain 1 G104N D106W , thanks.
0.316

yeast surface expression lookup needed for chain 1 S101Y Y103G , thanks.
0.935
